# System: HCC2998 (Colorectal Carcinoma)
# experimentDescription: combination Emax (second highest fraction inhibited in the dose matrix, 72 h); higher = more inhibition; extreme values may be limits of the assay
Each entry falls in a class defined on combination Emax; the bands are low interval = under 0.8, middle interval = from 0.8 up to 0.9, high interval = 0.9 and over

>  <compound>
CC(=O)c1c(C)c2cnc(Nc3ccc(N4CCNCC4)cn3)nc2n(C2CCCC2)c1=O [Palbociclib] + CN(CC[C@H](CSC1=CC=CC=C1)NC2=C(C=C(C=C2)S(=O)(=O)NC(=O)C3=CC=C(C=C3)N4CCC(CC4)[C@H](C5=CC=CC=C5C6=CC=C(C=C6)Cl)O)S(=O)(=O)C(F)(F)F)CCO [AZD4320] (first compound max 10 µM, 7x7, partner max 1 µM)

>  <assignedClass>
high interval

$$$$
>  <compound>
Cc1cc2ncnn2cc1Nc1ncc2c(n1)n(C1CCOCC1)c(=O)n2C [AZD7648] + C[C@@H]1COCCN1C2=NC(=NC(=C2)C3(CC3)[S@](=N)(=O)C)C4=C5C=CNC5=NC=C4 [AZD6738] (first compound max 10 µM, 7x7, partner max 10 µM)

>  <assignedClass>
middle interval

$$$$
>  <compound>
Cc1c2c(nn1C)CSCc1cc(n(C)n1)CSc1cc(c3ccccc3c1)OCCCc1c(C(=O)O)n(C)c3c-2c(Cl)ccc13 [AZD5991] + C=CCn1c(=O)c2cnc(Nc3ccc(N4CCN(C)CC4)cc3)nc2n1-c1cccc(C(C)(C)O)n1 [AZD1775] (first compound max 1 µM, partner max 1 µM)

>  <assignedClass>
high interval

$$$$
>  <compound>
NC1(C(=O)N[C@@H](CCO)c2ccc(Cl)cc2)CCN(c2ncnc3[nH]ccc23)CC1 [Capivasertib] + CCN(CCO)CCCOc1ccc2c(Nc3cc(CC(=O)Nc4cccc(F)c4)[nH]n3)ncnc2c1 [AZD2811] (first compound max 10 µM, 7x7, partner max 1 µM)

>  <assignedClass>
low interval

$$$$
>  <compound>
C=CCn1c(=O)c2cnc(Nc3ccc(N4CCN(C)CC4)cc3)nc2n1-c1cccc(C(C)(C)O)n1 [AZD1775] + C1CN(CCC1(C(=O)N[C@@H](CCO)C2=CC=C(C=C2)Cl)N)C3=NC=NC4=C3C=CN4 [Capivasertib] (first compound max 3 µM, partner max 3 µM)

>  <assignedClass>
middle interval

$$$$
>  <compound>
Cc1c2c(nn1C)CSCc1cc(n(C)n1)CSc1cc(c3ccccc3c1)OCCCc1c(C(=O)O)n(C)c3c-2c(Cl)ccc13 [AZD5991] + Cn1cnc2c(F)c(Nc3ccc(Br)cc3Cl)c(C(=O)NOCCO)cc21 [Selumetinib] (first compound max 1 µM, 7x7, partner max 3 µM)

>  <assignedClass>
high interval

$$$$
>  <compound>
Cc1c2c(nn1C)CSCc1cc(n(C)n1)CSc1cc(c3ccccc3c1)OCCCc1c(C(=O)O)n(C)c3c-2c(Cl)ccc13 [AZD5991] + C[C@@H]1COCCN1C2=NC(=NC(=C2)C3(CC3)[S@](=N)(=O)C)C4=C5C=CNC5=NC=C4 [AZD6738] (first compound max 1 µM, 7x7, partner max 10 µM)

>  <assignedClass>
high interval

$$$$
>  <compound>
CN(CCO)CC[C@H](CSc1ccccc1)Nc1ccc(S(=O)(=O)NC(=O)c2ccc(N3CCC([C@@H](O)c4ccccc4-c4ccc(Cl)cc4)CC3)cc2)cc1S(=O)(=O)C(F)(F)F [AZD4320] + CN(C)CCCOc1ccc(-c2ccc3ncc4c(c3c2)n(C2CCOCC2)c(=O)n4C)cn1 [AZD0156] (first compound max 1 µM, 7x7, partner max 1 µM)

>  <assignedClass>
low interval

$$$$
>  <compound>
C[C@@H](c1ccc2nccn2c1)n1nnc2ncc(-c3cnn(C)c3)nc21 [Savolitinib] + CN(CC[C@H](CSC1=CC=CC=C1)NC2=C(C=C(C=C2)S(=O)(=O)NC(=O)C3=CC=C(C=C3)N4CCC(CC4)[C@H](C5=CC=CC=C5C6=CC=C(C=C6)Cl)O)S(=O)(=O)C(F)(F)F)CCO [AZD4320] (first compound max 1 µM, 7x7, partner max 1 µM)

>  <assignedClass>
low interval

$$$$

###

# Test system: NCI-H1838 (Lung Adenocarcinoma);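 further: after 72 h of two-drug dosing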
# experimentDescription: Bliss excess, mean over the matrix (fraction); higher = more synergy
Label satisfied when Bliss excess is at or above -0.09; otherwise label not satisfied.

>  <compound>
COc1nnc2ccc(N3CCC(c4ccc(OCCN5CCN(C)C(=O)[C@H]5C)cc4)CC3)nn12 [AZD5153] + Cn1cnc2c(F)c(Nc3ccc(Br)cc3Cl)c(C(=O)NOCCO)cc21 [Selumetinib] (first compound max 1 µM, 7x7, partner max 10 µM)

>  <assignedClass>
satisfied

$$$$
>  <compound>
CC1(C)CCC(CN2CCN(c3ccc(C(=O)NS(=O)(=O)c4ccc(NCC5CCOCC5)c([N+](=O)[O-])c4)c(Oc4cnc5[nH]ccc5c4)c3)CC2)=C(c2ccc(Cl)cc2)C1 [Venetoclax] + C[C@@H]1COCCN1C2=NC(=NC(=C2)C3(CC3)[S@](=N)(=O)C)C4=C5C=CNC5=NC=C4 [AZD6738] (first compound max 1 µM, 7x7, partner max 10 µM)

>  <assignedClass>
satisfied

$$$$
>  <compound>
C[C@@H]1COCCN1c1cc(C2([S@](C)(=N)=O)CC2)nc(-c2ccnc3[nH]ccc23)n1 [AZD6738] + O=C(c1cc(Cc2n[nH]c(=O)c3ccccc23)ccc1F)N1CCN(C(=O)C2CC2)CC1 [Olaparib] (first compound max 10 µM, 7x7, partner max 10 µM)

>  <assignedClass>
not satisfied

$$$$
>  <compound>
Cc1cc2ncnn2cc1Nc1ncc2c(n1)n(C1CCOCC1)c(=O)n2C [AZD7648] + CCN(CCO)CCCOc1ccc2c(Nc3cc(CC(=O)Nc4cccc(F)c4)[nH]n3)ncnc2c1 [AZD2811] (first compound max 10 µM, 7x7, partner max 1 µM)

>  <assignedClass>
satisfied

$$$$
>  <compound>
CCN(CCO)CCCOc1ccc2c(Nc3cc(CC(=O)Nc4cccc(F)c4)[nH]n3)ncnc2c1 [AZD2811] + C[C@@H]1COCCN1C2=NC(=NC(=C2)C3(CC3)[S@](=N)(=O)C)C4=C5C=CNC5=NC=C4 [AZD6738] (first compound max 1 µM, 7x7, partner max 10 µM)

>  <assignedClass>
satisfied

$$$$
>  <compound>
Cc1c2c(nn1C)CSCc1cc(n(C)n1)CSc1cc(c3ccccc3c1)OCCCc1c(C(=O)O)n(C)c3c-2c(Cl)ccc13 [AZD5991] + Cc1cc2ncnn2cc1Nc1ncc2c(n1)n(C1CCOCC1)c(=O)n2C [AZD7648] (first compound max 1 µM, 7x7, partner max 10 µM)

>  <assignedClass>
not satisfied

$$$$
>  <compound>
COc1cccc(OCCCN)c1-c1cc(Nc2cnc(C#N)cn2)n[nH]1 [Prexasertib] + O=C(c1cc(Cc2n[nH]c(=O)c3ccccc23)ccc1F)N1CCN(C(=O)C2CC2)CC1 [Olaparib] (first compound max 1 µM, 7x7, partner max 10 µM)

>  <assignedClass>
not satisfied

$$$$

###

# Tested on: LC-1-sq (Squamous Cell Lung Carcinoma)
# experimentDescription: combination Emax (second highest fraction inhibited in the dose matrix, 72 h); higher = more inhibition; extreme values may be limits of the assay
measuredEndpoint: combination Emax

>  <compound>
Cc1c2c(nn1C)CSCc1cc(n(C)n1)CSc1cc(c3ccccc3c1)OCCCc1c(C(=O)O)n(C)c3c-2c(Cl)ccc13 [AZD5991] + C[C@@H](Nc1cc(F)cc(F)c1)c1cc(C(=O)N(C)C)cc2c(=O)cc(N3CCOCC3)oc12 [AZD8186] (first compound max 1 µM, 7x7, partner max 3 µM)

>  <dataValue>
0.24

$$$$
>  <compound>
NC1(C(=O)N[C@@H](CCO)c2ccc(Cl)cc2)CCN(c2ncnc3[nH]ccc23)CC1 [Capivasertib] + CCN(CCO)CCCOc1ccc2c(Nc3cc(CC(=O)Nc4cccc(F)c4)[nH]n3)ncnc2c1 [AZD2811] (first compound max 10 µM, 7x7, partner max 1 µM)

>  <dataValue>
0.322

$$$$
>  <compound>
Cn1cnc2c(F)c(Nc3ccc(Br)cc3Cl)c(C(=O)NOCCO)cc21 [Selumetinib] + CCN(CCO)CCCOc1ccc2c(Nc3cc(CC(=O)Nc4cccc(F)c4)[nH]n3)ncnc2c1 [AZD2811] (first compound max 10 µM, 7x7, partner max 1 µM)

>  <dataValue>
0.303

$$$$
>  <compound>
C[C@@H](c1ccc2nccn2c1)n1nnc2ncc(-c3cnn(C)c3)nc21 [Savolitinib] + CC1(C)CCC(CN2CCN(c3ccc(C(=O)NS(=O)(=O)c4ccc(NCC5CCOCC5)c([N+](=O)[O-])c4)c(Oc4cnc5[nH]ccc5c4)c3)CC2)=C(c2ccc(Cl)cc2)C1 [Venetoclax] (first compound max 1 µM, 7x7, partner max 1 µM)

>  <dataValue>
0.116

$$$$
>  <compound>
CN(CCO)CC[C@H](CSc1ccccc1)Nc1ccc(S(=O)(=O)NC(=O)c2ccc(N3CCC([C@@H](O)c4ccccc4-c4ccc(Cl)cc4)CC3)cc2)cc1S(=O)(=O)C(F)(F)F [AZD4320] + C[C@@H](Nc1cc(F)cc(F)c1)c1cc(C(=O)N(C)C)cc2c(=O)cc(N3CCOCC3)oc12 [AZD8186] (first compound max 1 µM, 7x7, partner max 3 µM)

>  <dataValue>
0.336

$$$$
>  <compound>
CC1(C)CCC(CN2CCN(c3ccc(C(=O)NS(=O)(=O)c4ccc(NCC5CCOCC5)c([N+](=O)[O-])c4)c(Oc4cnc5[nH]ccc5c4)c3)CC2)=C(c2ccc(Cl)cc2)C1 [Venetoclax] + C1CN(CCC1(C(=O)N[C@@H](CCO)C2=CC=C(C=C2)Cl)N)C3=NC=NC4=C3C=CN4 [Capivasertib] (first compound max 1 µM, 7x7, partner max 3 µM)

>  <dataValue>
0.198

$$$$
>  <compound>
COc1nnc2ccc(N3CCC(c4ccc(OCCN5CCN(C)C(=O)[C@H]5C)cc4)CC3)nn12 [AZD5153] + C[C@@H]1COCCN1C2=NC(=NC(=C2)C3(CC3)[S@](=N)(=O)C)C4=C5C=CNC5=NC=C4 [AZD6738] (first compound max 1 µM, 7x7, partner max 10 µM)

>  <dataValue>
0.783

$$$$
>  <compound>
COc1nnc2ccc(N3CCC(c4ccc(OCCN5CCN(C)C(=O)[C@H]5C)cc4)CC3)nn12 [AZD5153] + C=CCn1c(=O)c2cnc(Nc3ccc(N4CCN(C)CC4)cc3)nc2n1-c1cccc(C(C)(C)O)n1 [AZD1775] (first compound max 1 µM, partner max 1 µM)

>  <dataValue>
0.665

$$$$
>  <compound>
COc1nnc2ccc(N3CCC(c4ccc(OCCN5CCN(C)C(=O)[C@H]5C)cc4)CC3)nn12 [AZD5153] + CN(CC[C@H](CSC1=CC=CC=C1)NC2=C(C=C(C=C2)S(=O)(=O)NC(=O)C3=CC=C(C=C3)N4CCC(CC4)[C@H](C5=CC=CC=C5C6=CC=C(C=C6)Cl)O)S(=O)(=O)C(F)(F)F)CCO [AZD4320] (first compound max 1 µM, 7x7, partner max 1 µM)

>  <dataValue>
0.715

$$$$
